# Tgt: T1, 4H953-bA
# T1 chain: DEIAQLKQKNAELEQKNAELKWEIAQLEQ
# Experimental details: two-hybrid library CCNG1;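 note: natural log of median RNA to DNA barcode read ratio; higher means stronger binding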
# strict inequality: interaction score < -1 yields True, everything else yields False

Binder: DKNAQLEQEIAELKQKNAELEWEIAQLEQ [4H3185-bA]
Assigned class: True

Binder: DEIAQLKQEIAELKQENAELKWKNAQLEQ [4H607-bA]
Assigned class: False

Binder: DKIAQLKQEIAELKQKNAELEWEIAQLEQ [4H2673-bA]
Assigned class: False

Binder: DEIAQLEQKIAELKQKNAELEWEIAQLKQ [4H370-bA]
Assigned class: True

Binder: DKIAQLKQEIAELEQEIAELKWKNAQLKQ [4H2576-bA]
Assigned class: False
